study-system: KRAS G12D (Homo sapiens, UniProt P01116+P62937, G12D)
Sequence (P01116 1-169 isoform P01116-2 G12D limits assumed): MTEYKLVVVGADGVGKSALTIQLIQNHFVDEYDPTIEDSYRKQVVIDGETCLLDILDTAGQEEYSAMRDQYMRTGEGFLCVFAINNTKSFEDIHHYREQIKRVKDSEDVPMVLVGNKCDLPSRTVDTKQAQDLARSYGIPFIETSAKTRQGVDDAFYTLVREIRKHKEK
Sequence (P62937 whole entry): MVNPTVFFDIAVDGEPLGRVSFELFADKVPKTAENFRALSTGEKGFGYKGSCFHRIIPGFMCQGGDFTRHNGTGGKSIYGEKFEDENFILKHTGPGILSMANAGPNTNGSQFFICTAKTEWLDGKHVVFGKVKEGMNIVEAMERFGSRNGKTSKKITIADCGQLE
assay-explanation: Disruption of BRAF RBD interaction with Ras (FRET / MOA assay, with Cyclophilin A)
Type: biochemical
assay-conditions: read-out: KRAS G12D FRET data, IC50
pIC50: −log10 of the molar value.
Here the recorded pIC50 is given for each entry.
measure: pIC50

molecule=CCn1c(-c2cccnc2[C@H](C)OC)c2c3cc(ccc31)-c1csc(n1)C[C@H](NC(=O)[C@H](C(C)C)N(C)C(=O)N1CC[C@@H]1CN(C)C)C(=O)N1CCC[C@H](N1)C(=O)OCC(C)(C)C2 reported_measurement="6.00 to 7.00"
molecule="CCn1c(-c2cccnc2[C@H](C)OC)c2c3cc(ccc31)-c1csc(n1)C[C@H](NC(=O)[C@H](C(C)C)N(C)C(=O)N1C[C@H](OC)[C@@H](N)C1)C(=O)N1CCC[C@H](N1)C(=O)OCC(C)(C)C2 (atropisomer, axis not shown)" reported_measurement="6.00 to 7.00"
molecule="CCn1c(-c2cccnc2[C@H](C)OC)c2c3cc(ccc31)-c1cccc(c1)C[C@H](NC(=O)[C@@H](CN1CC[C@]3(CCN(C(=O)C#C[C@H]4COCCN4C)C3)C1=O)C(C)C)C(=O)N1CCCC(N1)C(=O)OCC(C)(C)C2 (stereo partly shown)" reported_measurement="< 5.00"
molecule=C=CC(=O)N1CCC(C(=O)N(C)[C@H](C(=O)N[C@H]2Cc3cc(O)cc(c3)-c3ccc4c(c3)c(c(-c3ccccc3CCOC)n4CC)CC(C)(C)COC(=O)[C@@H]3CCCN(N3)C2=O)C(C)C)CC1 reported_measurement="< 5.00"
molecule=CCn1c(-c2cc(N3CCN(C)CC3)cnc2[C@H](C)OC)c2c3cc(ccc31)-c1cc(O)cc(c1)C[C@H](NC(=O)[C@H](C1CCCC1)N(C)C(=O)[C@H]1OCC[C@H]1c1ccccc1)C(=O)N1CCC[C@H](N1)C(=O)OCC(C)(C)C2 reported_measurement="6.00 to 7.00"
molecule=C=CC(=O)N1CC[C@H](C(=O)N(C)[C@H](C(=O)N[C@H]2Cc3cc(O)cc(c3)-c3cnc4c(c3)c(c(-c3ccccc3CCOC)n4CC)CC(C)(C)COC(=O)[C@@H]3CCCN(N3)C2=O)C(C)C)C1 reported_measurement="< 5.00"
molecule=CCn1c(-c2cccnc2[C@H](C)OC)c2c3cc(ccc31)-c1cccc(c1)C[C@H](NC(=O)[C@H](C(C)C)N(C)C(=O)[C@@H]1CCN(C(=O)C#CC(C)(C)N3CCC3)C1)C(=O)N1CCC[C@H](N1)C(=O)OCC(C)(C)C2 reported_measurement="5.00 to 6.00"
molecule="C=CC(=O)N1CCO[C@H]2CN(C(=O)N(C)[C@H](C(=O)N[C@H]3Cc4cccc(n4)-c4ccc5c(c4)c(c(-c4cccnc4[C@H](C)OC)n5CC(F)(F)F)CC(C)(C)COC(=O)C4CCCN(N4)C3=O)C(C)C)C[C@H]21 (stereo partly shown)" reported_measurement="5.00 to 6.00"
molecule="CCn1c(-c2cc(N3CCN(C)CC3)cnc2[C@H](C)OC)c2c3cc(ccc31)-c1csc(n1)C[C@H](NC(=O)[C@H](C(C)C)N(C)C(=O)N1CCC13CCN(C)CC3)C(=O)N1CCC[C@H](N1)C(=O)OCC(C)(C)C2 (atropisomer, axis not shown)" reported_measurement="7.00 to 8.00"
molecule=C=CS(=O)(=O)N1CC[C@H](C(=O)N(C)[C@H](C(=O)N[C@H]2Cc3nc(cs3)-c3ccc4c(c3)c(c(-c3cncnc3)n4CC)CC(C)(C)COC(=O)[C@@H]3CCCN(N3)C2=O)C(C)C)C1 reported_measurement="< 5.00"
molecule=C=CC(=O)N1CC[C@H](C(=O)N(C)[C@H](C(=O)N[C@H]2Cc3cc(O)cc(c3)-c3ccc4c(c3)c(c(-c3ccc(CN(C)C)cc3)n4CC)CC(C)(C)COC(=O)[C@@H]3CCCN(N3)C2=O)C(C)C)C1 reported_measurement="< 5.00"
molecule="CCn1c(-c2cccnc2[C@H](C)OC)c2c3cc(ccc31)-c1csc(n1)C[C@H](NC(=O)[C@H](C(C)C)N(C)C(=O)N1CC(N(C)C)C1)C(=O)N1CCC[C@H](N1)C(=O)OCC(C)(C)C2 (racemic)" reported_measurement="5.00 to 6.00"
molecule="CCn1c(-c2cc(N3CCN(C)CC3)cnc2[C@H](C)OC)c2c3cc(ccc31)-c1csc(n1)C[C@H](NC(=O)[C@H](C(C)C)N(C)C(=O)N(C)C)C(=O)N1CCC[C@H](N1)C(=O)OCC(C)(C)C2 (atropisomer, axis not shown)" reported_measurement="6.00 to 7.00"
molecule="CCn1c(-c2cccnc2[C@H](C)OC)c2c3cc(ccc31)-c1csc(n1)C[C@H](NC(=O)[C@H](C(C)C)N(C)C(=O)N1CC([C@@H](C)N(C)C)C1)C(=O)N1CCC[C@H](N1)C(=O)OCC(C)(C)C2 (atropisomer, axis not shown)" reported_measurement="6.00 to 7.00"
molecule="CCn1c(-c2cccnc2COC)c2c3cc(ccc31)-c1cc(O)cc(c1)C[C@H](NC(=O)[C@@H](C(C)C)N(C)C(=O)[C@H]1CCN(C(=O)C#CC(C)N3CCOCC3)C1)C(=O)N1CCC[C@H](N1)C(=O)OCC(C)(C)C2 (stereo partly shown)" reported_measurement="< 5.00"
molecule=CCn1c(-c2cccnc2[C@H](C)OC)c2c3cc(ccc31)-c1csc(n1)C[C@H](NC(=O)[C@H](C(C)C)N(C)C(=O)N1C[C@H](C)N(C)C[C@@H]1C)C(=O)N1CCC[C@H](N1)C(=O)OCC(C)(C)C2 reported_measurement="5.00 to 6.00"
